# System: prokaryotic protein synthesis
# test name: in vitro transcription-translation assay
# Assay type: biochemical
# settings: read-out: half-maximum inhibitory concentration, inhibition of prokaryotic protein synthesis
Where no end group is shown, it is not given here.
measurement label: IC50 (nM)
Respond numerically; units are nM and should not be typed.

Exercise: I am curious: what IC50 value has been reported for IASASCTTCICTCSCSS (also: bicyclic or more (positions not given here)) [compound 1, thiostrepton A, reference compound] ?
Solution: 500

Entry source: paper PMC6193465
